# target-entity: LOX isozymes
# experimental-protocol: Lipoxygenase UV-Vis-based IC50 assay, summary over LOX isozymes
# Assay type: biochemical
# setup-conditions: read-out: IC50 for all LOXs; all LOXs studied

compound | target-entity | IC50
CCCCCC(=O)/C=C/C=C\CCCCCCCC(=O)O [13-oxo-ODE, 13-oxo-9,11-(Z,E)-octadecadienoic acid] | LOX isozymes | > 100 µM

====

# target-entity: h12-LOX (Homo sapiens, UniProt P18054)
# Sequence (P18054 1-663): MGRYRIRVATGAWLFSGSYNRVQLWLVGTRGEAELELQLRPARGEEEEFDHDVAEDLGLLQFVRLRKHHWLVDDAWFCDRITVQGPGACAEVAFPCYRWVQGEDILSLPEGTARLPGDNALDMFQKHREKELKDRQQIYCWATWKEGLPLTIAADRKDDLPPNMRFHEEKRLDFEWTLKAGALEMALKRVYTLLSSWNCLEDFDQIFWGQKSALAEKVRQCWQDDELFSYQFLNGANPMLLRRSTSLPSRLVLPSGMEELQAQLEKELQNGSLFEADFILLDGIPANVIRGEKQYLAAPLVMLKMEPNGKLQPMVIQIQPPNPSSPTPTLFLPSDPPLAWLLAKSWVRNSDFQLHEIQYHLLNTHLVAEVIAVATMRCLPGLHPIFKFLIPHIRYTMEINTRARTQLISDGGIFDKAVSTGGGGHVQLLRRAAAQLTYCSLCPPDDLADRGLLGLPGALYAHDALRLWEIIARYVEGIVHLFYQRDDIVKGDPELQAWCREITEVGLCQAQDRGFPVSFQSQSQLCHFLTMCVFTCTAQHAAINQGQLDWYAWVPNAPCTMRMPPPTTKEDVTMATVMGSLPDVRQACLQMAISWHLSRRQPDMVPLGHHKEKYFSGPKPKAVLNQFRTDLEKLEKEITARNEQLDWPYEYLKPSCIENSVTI
# experimental-protocol: Steady-state inhibition kinetics, h12-LOX
# Type: biochemical
# setup-conditions: Kiu, 0.4–10 μM AA, 25 mM HEPES pH 8.0, 0.01% Triton X-100; Dixon plot and replot
recorded-metric: Ki (nM)

compound | experimental-result
CCCCCC(=O)/C=C/C=C\C/C=C\C/C=C\CCCC(=O)O [15-oxo-ETE] | 2100

====

# target-entity: LOX isozymes
# experimental-protocol: Lipoxygenase UV-Vis-based IC50 assay, summary over LOX isozymes
# Format: biochemical
# setup-conditions: read-out: IC50 against the other LOX isozymes; LOX isozymes other than h12-LOX

structure-smiles-string | target-entity | IC50
CCCCCC(=O)/C=C/C=C\C/C=C\C/C=C\CCCC(=O)O | LOX isozymes | > 25 µM
